Reference for the values: ChEMBL document CHEMBL4152339

# Tested on: Enterococcus hirae
# EXPERIMENT SUMMARY: Antibacterial activity against Enterococcus hirae ATCC 10541 after 18 hrs by CLSI disc diffusion method
# Assay type: functional
# RECORDED CONDITIONS: ATCC 10541, 18 h
REPORTED ENDPOINT: MIC (µM)

Known MIC results, listed for orientation:
SMILES CODE	MIC / µM
O=C(O)n1nnnc1NCCc1c[nH]c2ccccc12	29
Fc1ccc(-n2nnnc2Nn2cnnc2)cc1	65
Cc1ccc(-n2nnnc2NCc2ccco2)cc1Cl	28
Fc1ccc(-n2nnnc2Nn2cnnc2)cc1Cl	29
O=C(O)n1nnnc1Nn1cnnc1	10

P = Fc1ccc(-n2nnnc2Nc2nccs2)cc1Cl
Q = Brc1ccc(-n2nnnc2Nn2cnnc2)cc1
R = O=[N+]([O-])c1cc(-n2nnnc2Nc2nc[nH]n2)ccc1Cl
Query: Rank entries according to their MIC, from the largest number down. The response must list the labels following the requested ordering.
Response: R, Q, P
(R: 208 µM, Q: 52 µM, P: 27 µM)

* * *

# System: Escherichia coli
# EXPERIMENT SUMMARY: Antibacterial activity against Escherichia coli ATCC 10538 after 18 hrs by CLSI disc diffusion method
# Format: functional
# RECORDED CONDITIONS: ATCC 10538, 18 h
REPORTED ENDPOINT: MIC (µM)

The examples below pair each entry with its known result.
SMILES CODE	EXPERIMENTAL TARGET	VALUE UNITS	MIC
O=C(O)n1nnnc1Nn1cnnc1	Escherichia coli	µM	20
O=C(O)n1nnnc1NCCc1c[nH]c2ccccc12	Escherichia coli	µM	29

P = Fc1ccc(-n2nnnc2NCCc2c[nH]c3ccccc23)cc1
Q = Fc1ccc(-n2nnnc2Nn2cnnc2)cc1Cl
R = Fc1ccc(-n2nnnc2NCc2ccco2)cc1Cl
S = Cc1ccc(-n2nnnc2NCc2ccco2)cc1Cl
Query: Arrange by MIC, high to low. Form entry: labels listed in requested order.
Response: Q, P, S, R

* * *

# System: HaCaT
# EXPERIMENT SUMMARY: Cytotoxicity activity against human HaCaT cells assessed as reduction in cell viability after 72 hrs by MTT assay
# Type: cell-based
REPORTED ENDPOINT: pIC50
In textbook form, pIC50 equals minus log to base ten of the concentration in mol/L.

// below: answered compounds
COMPOUND	pIC50
Fc1ccc(-n2nnnc2Nc2nccs2)cc1Cl	4.22
FC(F)(F)c1ccc(-n2nnnc2Nc2nccs2)cc1	4.10
COc1cccc2c1C(=O)c1c(O)c3c(c(O)c1C2=O)C[C@@](O)(C(=O)CO)C[C@@H]3O[C@H]1C[C@H](N)[C@H](O)[C@H](C)O1 [DOXORUBICIN]	5.96
Brc1ccc(-n2nnnc2Nn2cnnc2)cc1	4.19
Fc1ccc(-n2nnnc2Nn2cnnc2)cc1	4.08

Query: Any idea what pIC50 was measured for O=[N+]([O-])c1ccc(-n2nnnc2Nn2cnnc2)cc1 ?
Response: 4.19
